The values you see were collected from paper PMC4780051.

Measured Target: UniProt I6L8L2
Sequence (I6L8L2 1-224): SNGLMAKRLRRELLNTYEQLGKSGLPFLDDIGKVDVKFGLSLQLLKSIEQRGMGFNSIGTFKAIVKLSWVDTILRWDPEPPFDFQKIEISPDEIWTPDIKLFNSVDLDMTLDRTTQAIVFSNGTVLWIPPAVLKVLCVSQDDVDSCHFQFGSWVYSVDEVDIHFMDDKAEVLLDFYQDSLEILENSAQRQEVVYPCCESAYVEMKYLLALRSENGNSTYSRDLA
Method: STD NMR displacement titration with choline as reporter ligand
Measure: Kd (µM)
Quick note: give the figure in µM, leave out the unit.

Return reported Kd. Input compound: CC(=O)OCC[N+](C)(C)C [ACh, acetylcholine]
28.7
